Experiment: Steady state volume of distribution dosing at 3 mg/kg iv
Type: ADME, organism-based
Set-up: dose 3 mg/kg, route intravenous
Settings: rat, in vivo
ASSAY READOUT: Vd
State the value, then name its unit.

Given CN(Cc1n[nH]c(O)n1)[C@H](COCc1cc(C(F)(F)F)cc(C(F)(F)F)c1)c1ccccc1 , state its recorded Vd. 3.5 L/kg

###

Target: Substance-P receptor (Homo sapiens, UniProt P25103)
Sequence (P25103 whole entry): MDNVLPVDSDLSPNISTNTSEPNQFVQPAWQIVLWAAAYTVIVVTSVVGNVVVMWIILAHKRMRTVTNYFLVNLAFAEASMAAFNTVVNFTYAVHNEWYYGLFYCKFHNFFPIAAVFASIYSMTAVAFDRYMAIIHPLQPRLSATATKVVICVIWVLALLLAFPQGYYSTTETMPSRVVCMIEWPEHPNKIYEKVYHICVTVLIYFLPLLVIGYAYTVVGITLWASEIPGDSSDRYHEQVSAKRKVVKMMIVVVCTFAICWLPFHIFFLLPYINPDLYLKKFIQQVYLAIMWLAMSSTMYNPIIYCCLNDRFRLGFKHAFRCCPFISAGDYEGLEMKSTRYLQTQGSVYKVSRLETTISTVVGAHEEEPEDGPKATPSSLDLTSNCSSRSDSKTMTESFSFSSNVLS
Test: Affinity towards hNK1 receptor by displacement of [125I]- Substance P from hNK1 receptor expressed in CHO cells
ASSAY READOUT: log10 of IC50 (log10 of the value in nM)
Please be aware that the numbers have been log10-transformed from IC50 in nM.

Solved cases (5 shown):
In [3]: df
Out[3]:
                               smiles_input                              assay_system  numeric_readout
0  Cc1cc(Cl)cc(COC[C@H](c2ccccc2)N(C)Cc2n[nH]c(O)n2)c1  Substance-P receptor (Homo sapiens, UniProt P25103)             0.34
1  CCCN(Cc1n[nH]c(O)n1)[C@H](COCc1cc(C(F)(F)F)cc(C(F)(F)F)c1)c1ccccc1  Substance-P receptor (Homo sapiens, UniProt P25103)             0.30
2  CN(Cc1nnnn1C)[C@H](COCc1cc(C(F)(F)F)cc(C(F)(F)F)c1)c1ccccc1  Substance-P receptor (Homo sapiens, UniProt P25103)             1.11
3  CN(Cc1n[nH]c(O)n1)[C@H](COCc1cc(C(F)(F)F)cc(C(F)(F)F)c1)c1ccccc1  Substance-P receptor (Homo sapiens, UniProt P25103)            -0.37
4  CN(Cc1nn[nH]n1)[C@H](COCc1cc(C(F)(F)F)cc(C(F)(F)F)c1)c1ccccc1  Substance-P receptor (Homo sapiens, UniProt P25103)             1.85

Given CCN(Cc1n[nH]c(O)n1)[C@H](COCc1cc(C(F)(F)F)cc(C(F)(F)F)c1)c1ccccc1 , state its recorded log10 of IC50. -0.10

###

Biological target: Substance-P receptor (Homo sapiens)
Assay: Affinity towards hNK1 receptor by displacement of [125I]- Substance P from hNK1 receptor expressed in CHO cells
Quick list: IC50 per entry.
Form entry: value (nM) — number only.

Solved cases (8 shown):
>>> df
                               smiles_input  numeric_readout
0  O=c1[nH]nc(CN[C@H](COCc2cc(C(F)(F)F)cc(C(F)(F)F)c2)c2ccccc2)[nH]1              2.4
1  CN(Cc1n[nH]c(O)n1)[C@H](COCc1cc(Cl)cc(Cl)c1)c1ccccc1              1.5
2  CN(Cc1nc[nH]n1)[C@H](COCc1cc(C(F)(F)F)cc(C(F)(F)F)c1)c1ccccc1              1.4
3  Cc1cc(COC[C@H](c2ccccc2)N(C)Cc2n[nH]c(=O)[nH]2)cc(C(C)(C)C)c1             0.42
4  Cn1nnc(CN[C@H](COCc2cc(C(F)(F)F)cc(C(F)(F)F)c2)c2ccccc2)n1               15
5  CN(Cc1nnn(C)n1)[C@H](COCc1cc(C(F)(F)F)cc(C(F)(F)F)c1)c1ccccc1               16
6  FC(F)(F)c1cc(COC[C@@H](NCc2nn[nH]n2)c2ccccc2)cc(C(F)(F)F)c1               23
7  FC(F)(F)c1cc(COC[C@@H](NCc2nnc[nH]2)c2ccccc2)cc(C(F)(F)F)c1                5

With those in mind, consider the next compound.
Given Cn1nnnc1CN[C@H](COCc1cc(C(F)(F)F)cc(C(F)(F)F)c1)c1ccccc1 , state its recorded IC50. 10

meta.source: ChEMBL document CHEMBL1130974
